- Test system: Helicobacter pylori
- test details: MIC against Helicobacter pylori by two fold serial dilution in growth medium
- Format: cell-based
- cond: Strain 1 (Chloride: against first pH 7 value)
// boundary case: Mean ratio pH 4:pH 7, first value equal to 0.05 maps to 0; strictly smaller maps to 1

Worked set:
1. Br [Co bromide] : 1
2. [Cl-].[Cl-].[Co+2] [Co chloride, cobalt (II) chloride] : 0
3. CC(=O)[O-].CC(=O)[O-].[Co+2] [Co acetate] : 0
4. O=C([O-])[O-].[Co+2] [Co carbonate] : 1

Task: Item [OH][Co][OH] [Co hydroxide] : Mean ratio pH 4:pH 7, first value beneath 0.05, strictly?
Result: 0

Task: Mean ratio pH 4:pH 7, first value strictly < 0.05 for this molecule? O=[N+]([O-])[O-].O=[N+]([O-])[O-].[Co+2] [Co nitrate]
Result: 0

====

- Tested on: Helicobacter pylori
- test details: MIC against Helicobacter pylori by two fold serial dilution in growth medium
- Format: cell-based
- cond: Table 4
reported metric: MIC, H. pylori

# example entries with known answers
1. [Cl][Cu][Cl] : 32
2. [Cl][Fe]([Cl])[Cl] : >32/>32
3. [Cl][Mn][Cl] : >32/>32
4. [Cl-].[Cl-].[Zn+2] : >32/32

Kindly consider the entry below.
Task: Query (compound): "[Ni+2]" ; field requested: MIC, H. pylori
Result: >32/>32

This collection of values is drawn from patent US7811609B2.
